tested on: IL-1β release upon NLRP3 activation in peripheral blood mononuclear cells (PBMC); test: PBMC IC50 Determination Assay; type: cell-based; details: Homo sapiens; inhibition of IL-1β release; LPS-primed PBMC stimulated with ATP or nigericin
Listed here are molecules together with their documented IC50.

Before answering, review these 2 worked examples.
Cc1cc(Cl)cc(O)c1-c1ccc(CN(C)[C@@H]2CCOC2)nn1 [Compound 58] :: 1000 to 3000 nM
Cc1cn(Cc2ccc(-c3c(C)cc(C(F)(F)F)cc3O)nn2)c(=N)s1 [Compound 125] :: 1000 to 3000 nM

Ask: Return value of IC50 for input CC(=O)N1CCC(NCc2ccc(-c3c(C)cc(C(F)(F)F)cc3O)nn2)CC1 [Compound 142] , no commentary.
Result: < 500 nM

Ask: Return value of IC50 for input Cc1cc(C(F)(F)F)cc(O)c1-c1ccc(CN2CC(C)CC2=O)nn1 (centres unmarked) [Compound 46] , no commentary.
Result: 1000 to 3000 nM

Ask: Return value of IC50 for input Cc1cc(C(F)(F)F)cc(O)c1-c1ccc(CNc2cnccn2)nn1 [Compound 146] , no commentary.
Result: 500 to 1000 nM
